Could you please report measured TGI for the items listed next?
- Tested on: NCI-H226 lung
- METHOD_NOTES: NCI tumour cell line growth inhibition, 48 h

[ask] I would be grateful if you could share the reported TGI for "C[n+]1cccc2c(=O)c3ccccc3oc21" .
[reply] > 100 µM

[ask] I would be grateful if you could share the reported TGI for C=C/C(C)=C\CC1[C@](C)(O)CC[C@H]2C(C)(C)C(=O)CC[C@]12C (some centres undefined) .
[reply] > 100 µM

[ask] I would be grateful if you could share the reported TGI for O=C(c1ccc(Cl)cc1Cl)C1[C@H]2C(=O)N(c3ccc(Cc4ccc(N5C(=O)[C@@H]6ON(c7ccccc7)C(C(=O)c7ccc(Cl)cc7Cl)[C@@H]6C5=O)cc4)cc3)C(=O)[C@H]2ON1c1ccccc1 (some centres undefined) .
[reply] > 50 µM

[ask] I would be grateful if you could share the reported TGI for "CC1=C(c2cccc(O)c2)[C@H](c2ccc(OCCN3CC(CF)C3)cc2)Oc2ccc(O)cc21" .
[reply] 28.2 µM

###

- System: 786-0 renal
- METHOD_NOTES: NCI tumour cell line growth inhibition, 48 h; in the data active means GI50 below about 0.43 µM; inactive means the rest
// one of 1.0 (active), 0.0 (inactive), no free text

[ask] Look up the recorded call for "COc1ccc(CCN2CC=Cn3c2nc2ccccc2c3=O)cc1" in this test.
[reply] 1.0

[ask] Look up the recorded call for "CCCCOC(=O)N1CCN(/[N+]([O-])=N/Oc2ccc([N+](=O)[O-])cc2[N+](=O)[O-])CC1" in this test.
[reply] 0.0

[ask] Look up the recorded call for CC1(C)C2CCC13C(=O)C1OC3(C2)C2C(=O)c3ccccc3C(=O)C12 (stereo not given) in this test.
[reply] 0.0

[ask] Look up the recorded call for Cc1cc2c(cc1Cl)SC1=NN(C)C(C)N1S2(=O)=O (stereo not given) in this test.
[reply] 0.0

[ask] Look up the recorded call for "COc1ccc(C/C(C)=C(/c2ccc(OCCN3CCCCC3)cc2)c2ccc(OC(=O)NCc3ccccc3)cc2)cc1" in this test.
[reply] 1.0

###

- Tested on: DLD-1 colon
- METHOD_NOTES: NCI tumour cell line growth inhibition, 48 h
ASSAY_ENDPOINT: TGI

[ask] I would be grateful if you could share the reported TGI for "CCOC(=O)CC[C@H](NC(=O)c1nc[nH]c1[N+](=O)[O-])C(=O)OCC" .
[reply] > 100 µM

[ask] I would be grateful if you could share the reported TGI for CC(=O)Oc1cc2c(cc1OC(C)=O)OCC(c1ccc(C)cc1)C2 (stereo not drawn) .
[reply] 45.9 µM

[ask] I would be grateful if you could share the reported TGI for "CSc1nnc(CCC(=O)Nc2c(C)cccc2C)o1" .
[reply] > 100 µM

[ask] I would be grateful if you could share the reported TGI for CCCCCCCCCCCCCCCC(=O)OCC1OC(n2cc(F)c(=O)[nH]c2=O)C(N)C(O)C1O (stereo not drawn) .
[reply] 37.1 µM

[ask] I would be grateful if you could share the reported TGI for Cc1cc(NC(=O)NC(=O)c2ccccc2NC(=O)C(C)N)ccc1Oc1ncc(Br)cn1 (stereo not drawn) .
[reply] > 100 µM

[ask] I would be grateful if you could share the reported TGI for "CC(=O)Nc1ccc(S(=O)(=O)N/N=C/CN2C(=O)c3ccccc3C2=O)cc1" .
[reply] > 100 µM

[ask] I would be grateful if you could share the reported TGI for "COc1ccc2c(c1)C(=O)c1ccc(OC)cc1C2=S" .
[reply] > 100 µM

[ask] I would be grateful if you could share the reported TGI for CC(CN(C)C)/C(=N\Nc1ccccc1)c1ccccc1 (stereo not drawn) .
[reply] > 100 µM

###

- System: SK-MEL-2 melanoma
- METHOD_NOTES: NCI tumour cell line growth inhibition, 48 h
Could you please report measured TGI for the items listed next?

[ask] I would be grateful if you could share the reported TGI for CCCCOC(=O)C(NC(C(=O)OCCCC)c1cc(C(C)(C)C)c(O)c(C(C)(C)C)c1)c1cc(C(C)(C)C)c(O)c(C(C)(C)C)c1 (stereo unspecified) .
[reply] > 100 µM

[ask] I would be grateful if you could share the reported TGI for "CSCSSC" .
[reply] > 100 µM

[ask] I would be grateful if you could share the reported TGI for "Nc1ccc(S(=O)(=O)c2ccc(NCN3C(=O)NC(=O)C(=O)C3=O)cc2)cc1" .
[reply] > 100 µM

[ask] I would be grateful if you could share the reported TGI for "COc1ccc(C/C(C)=C(/c2ccc(OCCN3CCCCC3)cc2)c2ccc(OC(=O)NCc3ccccc3)cc2)cc1" .
[reply] 0.879 µM

[ask] I would be grateful if you could share the reported TGI for CN(C)CCN1C(=O)c2c(c3c4ccccc4n4c3c3c2c2ccccc2n3C2CC(O)C(O)C4(C)O2)C1=O (stereo unspecified) .
[reply] 9.2 µM

[ask] I would be grateful if you could share the reported TGI for "O=C1Nc2ccc(Br)cc2C1=Nc1cccnc1" .
[reply] 57.2 µM

[ask] I would be grateful if you could share the reported TGI for "COc1cccc(CCN2CCN(CCCc3ccccc3)CC2)c1" .
[reply] > 100 µM

[ask] I would be grateful if you could share the reported TGI for NC(=O)N/N=C1/CCC(O)CC1CC(=O)O (stereo unspecified) .
[reply] > 100 µM

[ask] I would be grateful if you could share the reported TGI for "Cc1c(C(=O)Nc2ccccc2)sc2ncn(Cc3cccc(Cl)c3)c(=O)c12" .
[reply] > 100 µM

[ask] I would be grateful if you could share the reported TGI for CCCC(=O)NC(Nc1ccc(S(=O)(=O)Nc2cc(C)on2)cc1)(C(=O)OCC)C(F)(F)F (stereo unspecified) .
[reply] > 100 µM

[ask] I would be grateful if you could share the reported TGI for C[N+](C)(C)c1ccc(C(N)C(=O)O)cc1 (stereo unspecified) .
[reply] > 100 µM

[ask] I would be grateful if you could share the reported TGI for "Cc1cc2c(C(C)C)c(O)c(O)cc2c(O)c1-c1c(C)cc2c(C(C)C)c(O)c(O)cc2c1O" .
[reply] 33.9 µM

[ask] I would be grateful if you could share the reported TGI for COc1cccc(N2C(=O)C3c4[nH]c5ccccc5c4C4CCCC4C3C2=O)c1 (stereo unspecified) .
[reply] > 10 µM

[ask] I would be grateful if you could share the reported TGI for Cc1ccc(OCC2OC(n3cnc4nc(N)nc(Cl)c43)CC2Oc2ccc(C)cc2)cc1 (stereo unspecified) .
[reply] 37.7 µM

[ask] I would be grateful if you could share the reported TGI for CC(C)(C)C(=O)OCC1C(=O)OCC1C(=O)N1Cc2cc3ccccc3nc2C1 (stereo unspecified) .
[reply] 22.1 µM

[ask] I would be grateful if you could share the reported TGI for "Cc1cc(-c2nc3cc(F)ccc3s2)ccc1NC(=O)[C@@H](N)CCCCN" .
[reply] 8.76 µM

[ask] I would be grateful if you could share the reported TGI for "C[n+]1cccc2c(=O)c3ccccc3oc21" .
[reply] > 100 µM

[ask] I would be grateful if you could share the reported TGI for "CCCCCCC[CH2][Sn]([CH2]CCCCCCC)([O]c1cccc2cccnc12)[O]c1cccc2cccnc12" .
[reply] 3.14 µM

[ask] I would be grateful if you could share the reported TGI for Cc1ccc(OCC2OC(n3cnc4c(Cl)nc(N)nc43)CC2Oc2ccc(C)cc2)cc1 (stereo unspecified) .
[reply] > 56.9 µM

[ask] I would be grateful if you could share the reported TGI for NNC(=O)C1CCC(=O)N1S(=O)(=O)c1ccccc1 (stereo unspecified) .
[reply] > 100 µM

[ask] I would be grateful if you could share the reported TGI for "COC(=O)c1cc(=O)[nH]c(=O)[nH]1" .
[reply] > 100 µM

###

- Tested on: HCC-2998 colon
- METHOD_NOTES: NCI tumour cell line growth inhibition, 48 h
Could you please report measured TGI for the items listed next?
API: value field is a number in µM; no unit string.

[ask] Any idea what TGI came out for Cc1ccc(OCC2OC(n3cnc4nc(N)nc(Cl)c43)CC2Oc2ccc(C)cc2)cc1 (centres undefined) on HCC-2998 colon?
[reply] 33.6

[ask] Any idea what TGI came out for "O=C1c2cc3c(cc2[C@@H]2[C@H]1c1ccc([N+](=O)[O-])cc1C(=O)N2CCCBr)OCO3" on HCC-2998 colon?
[reply] 0.117

[ask] Any idea what TGI came out for O=C1CCCCCCCCCCC1CN1CCCC1 (centres undefined) on HCC-2998 colon?
[reply] 70.6

[ask] Any idea what TGI came out for "C=CCN=C(N/N=C/c1ccc([N+](=O)[O-])o1)NS(=O)(=O)c1cc(C(=O)Nc2ccc(Cl)cc2)c(Cl)cc1SC" on HCC-2998 colon?
[reply] 5.96

[ask] Any idea what TGI came out for "O=C(Nc1cccc(-n2cc(-c3ccncc3)c(-c3ccc(Cl)c(O)c3)n2)c1)Nc1cc(C(F)(F)F)cc(C(F)(F)F)c1" on HCC-2998 colon?
[reply] 2.04

[ask] Any idea what TGI came out for "O=C1/C(=C/c2ccccc2)CN(C(=O)CCN2CCOCC2)C/C1=C\c1ccccc1" on HCC-2998 colon?
[reply] 3.68

[ask] Any idea what TGI came out for COC(=O)C1(Cc2ccc3c(c2)CCC3)Cc2ccccc2C1O (centres undefined) on HCC-2998 colon?
[reply] 31.9

[ask] Any idea what TGI came out for "Cc1ccc([S@](=O)c2occc2C=O)cc1" on HCC-2998 colon?
[reply] 29.3

[ask] Any idea what TGI came out for O=C(C/C(=N/O)C(=O)NC1=C(Cl)C(=O)c2ccccc2C1=O)CC(c1ccccc1)c1c(O)c2ccccc2oc1=O (centres undefined) on HCC-2998 colon?
[reply] 25.6

[ask] Any idea what TGI came out for "COc1c(O)c(C=O)c2c(O)c(-c3c(C)cc4c(C(C)C)c(OC)c(O)c(C=O)c4c3O)c(C)cc2c1C(C)C" on HCC-2998 colon?
[reply] 5.34
